assay: Ocular biodistribution of PS after topical eye drops in New Zealand white rabbits (HPLC); format: in vivo, rabbit; settings: New Zealand white, rabbit, cornea, topical, 0.5 h; topical eye drops, mPEG-PLA nanoparticles; read-out: PS in Cornea
quantity kind: concentration at 0.5 h (µM)
Report the figure in µM without appending any unit label.

Qu. Return value of concentration at 0.5 h for input CCOP(=O)(OCC)OCCCCOC(=O)CC1=C(C)/C(=C/c2ccc([S+](C)[O-])cc2)c2ccc(F)cc21 (stereo not shown) , no commentary.
Ans. 89.8

---

assay: Ocular biodistribution of PS after topical eye drops in New Zealand white rabbits (HPLC); type: in vivo, rabbit; conditions: New Zealand white, rabbit, retina, topical, 3.5 % PS solution (eye drops), 1 h; topical eye drops, 3.5% PS solution in propylene glycol; read-out: PS in Retina
quantity kind: concentration at 1 h

Qu. Return value of concentration at 1 h for input CCOP(=O)(OCC)OCCCCOC(=O)CC1=C(C)/C(=C/c2ccc([S+](C)[O-])cc2)c2ccc(F)cc21 (stereo not shown) , no commentary.
Ans. 0 nM

---

experiment: Ocular biodistribution of PS after topical eye drops in New Zealand white rabbits (HPLC); format: in vivo, rabbit; details: New Zealand white, rabbit, sclera, topical, 5.4 % PS, 3 h; topical, Poloxamer 407 in-situ gel, 5.4% PS; read-out: PS in Sclera
quantity kind: concentration at 3 h (nM)
Report the figure in nM without appending any unit label.

Qu. Return value of concentration at 3 h for input CCOP(=O)(OCC)OCCCCOC(=O)CC1=C(C)/C(=C/c2ccc([S+](C)[O-])cc2)c2ccc(F)cc21 (stereo not shown) , no commentary.
Ans. 0

---

assay: Ocular biodistribution of PS after topical eye drops in New Zealand white rabbits (HPLC); assay type: in vivo, rabbit; details: New Zealand white, rabbit, aqueous humor, topical, 5 h; topical, 0.4% gellan gum in-situ gel, 2.4-3% PS; read-out: PS in Aqueous humor
quantity kind: concentration at 5 h
Note: a bare number is incomplete; add the unit.

Qu. Return value of concentration at 5 h for input CCOP(=O)(OCC)OCCCCOC(=O)CC1=C(C)/C(=C/c2ccc([S+](C)[O-])cc2)c2ccc(F)cc21 (stereo not shown) [PS, phosphosulindac] , no commentary.
Ans. 0 nM

---

experiment: Ocular biodistribution of PS after topical eye drops in New Zealand white rabbits (HPLC); assay type: in vivo, rabbit; details: New Zealand white, rabbit, conjunctiva, topical, 0.5 h; topical eye drops, mPEG-PLA nanoparticles; read-out: PS in Conjunctiva
quantity kind: concentration at 0.5 h (µM)
Report the figure in µM without appending any unit label.

Qu. Return value of concentration at 0.5 h for input CCOP(=O)(OCC)OCCCCOC(=O)CC1=C(C)/C(=C/c2ccc([S+](C)[O-])cc2)c2ccc(F)cc21 (stereo not shown) , no commentary.
Ans. 121

---

assay: Ocular biodistribution of PS after topical eye drops in New Zealand white rabbits (HPLC); format: in vivo, rabbit; conditions: New Zealand white, rabbit, cornea, topical, 1 h; topical eye drops, mPEG-PLA nanoparticles; read-out: PS in Cornea
quantity kind: concentration at 1 h (µM)
Report the figure in µM without appending any unit label.

Qu. Return value of concentration at 1 h for input CCOP(=O)(OCC)OCCCCOC(=O)CC1=C(C)/C(=C/c2ccc([S+](C)[O-])cc2)c2ccc(F)cc21 (stereo not shown) , no commentary.
Ans. 63.9
